Tested on: KM12 colon
Assay: NCI tumour cell line growth inhibition, 48 h
For each of the compounds below, state its TGI.

Worked set:
structuresmilesstring=Cc1cc(O)c2c(c1O)C(=O)c1c(O)ccc(O)c1C2=O assayresult="> 100 µM"
structuresmilesstring=Cn1c(=O)c2[nH]c(/N=N\n3ccc4ccccc43)nc2n(C)c1=O assayresult="> 100 µM"
structuresmilesstring=COc1c(Nc2ncc(Cl)c(N[C@@H]3[C@H]4C=CC(C4)[C@@H]3C(N)=O)n2)ccc2c1CC[C@@H](N1CCOCC1)CC2 assayresult="25.2 µM"
structuresmilesstring=CC(C)=CCC/C(C)=C/CC/C(C)=C/[C@@H]1[C@@H](CO)[C@]1(C)CC/C=C(\C)CCC=C(C)C assayresult="> 100 µM"

# next compound below
Let me check: C=CC1(c2ccc(Cl)c(Cl)c2)OCCO1 , system KM12 colon, measured TGI is > 100 µM

* * *

Tested on: EKVX NSCLC
Test: NCI tumour cell line growth inhibition, 48 h
measure: TGI (µM)
Numbers only, in µM.

structuresmilesstring=CCCCCCCCCCCCCCCCCC(=O)[O][Sn]([CH2]CCC)([CH2]CCC)[CH2]CCC assayresult=0.297

We next turn to a different compound, shown below.
Summary for this compound, C=C1CCCC(C)(C)[C@@H]1CC/C(C)=C/Cn1c2cccc(=O)c-2nc2ccccc21 : TGI is 11.4

* * *

System: SNB-19 CNS
Experiment: NCI tumour cell line growth inhibition, 48 h; in the data active = GI50 below about 0.43 µM; inactive = the rest
Hi! Could you answer with just one of these? true (1) (active), false (0) (inactive)

compound=O=C(O[C@H]1CN[C@H](C#Cc2cc3ncnc(Nc4ccc(Cc5ccccc5)cc4)c3s2)C1)N1CCOCC1 category="false (0)"
compound=Cc1cc(N2CCOCC2)nc(N(CCNc2ccnc3cc(Cl)ccc23)Cc2ccco2)n1 category="false (0)"
compound=CCCCCCCCCCCCCCCCCC(=O)[O][Sn]([CH2]CCC)([CH2]CCC)[CH2]CCC category="true (1)"

Query compound follows.
Could you please tell me the result logged for C[C@@]12CCC[C@@](C)(C(=O)O)C1CC[C@]13C=C(CO)[C@](O)(CCC12)C3 (stereo not given in full) in this assay?
false (0)

* * *

Can you tell me TGI for the items I'm about to list?
Test system: UACC-62 melanoma
Assay: NCI tumour cell line growth inhibition, 48 h

compound=COC(=O)c1c(O)ccc2c1c1c(n2Cc2ccccn2)C(=O)c2ccccc2C1 assayresult="> 100 µM"

Dear colleague, could you please provide TGI for the compounds listed below?
1. Cn1c(=O)c2[nH]c(/N=N\n3ccc4ccccc43)nc2n(C)c1=O
2. Nc1nn(C(=O)Nc2ccc(Cc3ccccc3)cc2)c2ccc(Cl)cc12
3. S=C(Nc1ccc(-c2nc3ccccc3s2)cc1)Nc1ccccn1
4. CCc1ccc(/C(C#N)=C/C=C/c2ccccc2)cc1

1. > 100 µM
2. > 100 µM
3. 57.3 µM
4. > 100 µM

Parameter requested: TGI. Apply to each item below.
1. O=CC(O)C(O)C(O)COc1cc(CO)cc2c1C(=O)c1ccccc1C2=O (stereo not drawn)
2. CSc1nc2nc(C)c(C)nc2c(=O)[nH]1

1. > 100 µM
2. > 100 µM

# batch size: 4; output TGI per entry
1. CCOC(=O)/C(=C/c1cc(OC)ccc1OC)CC(=O)O
2. NC1=NN(c2ccccc2)C(=O)C1C(=O)C(=O)NC1C2CC3CC(C2)CC1C3 (stereo not drawn)
3. CCC(C#N)N(Cc1ccc(CN(C(=O)c2ccccc2)C(C#N)CC)cc1)C(=O)c1ccccc1 (stereo not drawn)
4. CCCCCCCCCCCCCCCCCC(=O)[O][Sn]([CH2]CCC)([CH2]CCC)[CH2]CCC

1: > 100 µM; 2: > 100 µM; 3: 60.1 µM; 4: 0.45 µM

Batch request: TGI per item, same order as input.
1. Fc1cc(C2=C[C@H](c3ccc4c(c3)OCO4)NC(=S)N2)c(Cl)cc1Cl
2. O=[N+]([O-])c1ccc(Oc2cccnc2)c([N+](=O)[O-])c1
3. COc1ccccc1/C=C1\CCC(CN(C)C)C1=O (stereo not drawn)
4. Nc1ccccc1S(=O)c1ccccc1 (stereo not drawn)

1. > 100 µM
2. 17.3 µM
3. 13.9 µM
4. > 100 µM
